src = patent US20060020110A1

- system: HBcAg (Hepatitis B virus genotype D subtype ayw, UniProt P03146)
- Sequence (P03146 whole entry): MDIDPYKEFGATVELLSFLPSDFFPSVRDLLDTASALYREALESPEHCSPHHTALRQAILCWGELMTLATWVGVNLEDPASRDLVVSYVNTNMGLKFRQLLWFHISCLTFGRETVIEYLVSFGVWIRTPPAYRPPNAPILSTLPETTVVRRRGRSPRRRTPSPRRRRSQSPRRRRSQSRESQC
- details: support-bound peptide; HBcAg 0.2 μg/well
Listed here are sequences together with their documented OD at 405 nm to indicated antigen: HBcAg 0.2 μg/well.

Below are worked cases with known answers.
CKASGYIFTSYDIDWVRQTP (Synthetically prepared amino acid sequence) [Peptide 3]; 0.187
QLNSLTSEDSAVYYCARGKG (Synthetically prepared amino acid sequence) [Peptide 32]; 0.121
ELTRLTSEDSAVYFCARGDY (Synthetically prepared amino acid sequence) [Peptide 9]; 0.195
YDIDWVRQTPEQGLEWIGWI (Synthetically prepared amino acid sequence) [Peptide 4]; 0.202

// below: OD at 405 nm to indicated antigen: HBcAg 0.2 μg/well requested for another sequence
GET /values?readout=OD at 405 nm to indicated antigen: HBcAg 0.2 μg/well&item= LVTVSAAKTTPPSVYPLVPV (Synthetically prepared amino acid sequence) [Peptide 35]
0.198

###

// values below are reported gG2 mAb binding to indicated antigen on solid phase: fusion peptide
- Tested on: mAb specific for HSV gG2
- assay: gG2 mAb binding to fusion peptide on solid phase
- details: no addition of fusion peptide in solution

VKLSCKASGYIFTSEHRGGPE [SEQ. ID. No. 73]; 0.060
VKLSCKASGYIFTSGGPEEFE [SEQ. ID. No. 76]; 0.018
VKLSCKASGYIFTSHRGGPEE [SEQ. ID. No. 75]; 0.213
KLSCKASGYIFTSRGGPEEFE [SEQ. ID. No. 72]; 0.062
KLSCKASGYIFTSEHRGGPEE [SEQ. ID. No. 70]; 0.040
VKLSCKASGYIFTSHRGGPEE [SEQ. ID. No. 74]; 0.884

Form field: reported gG2 mAb binding to indicated antigen on solid phase: fusion peptide of KLSCKASGYIFTSHRGGPEEF [SEQ. ID. No. 71]
1.622

###

- system: HBcAg (Hepatitis B virus genotype D subtype ayw)
- details: support-bound peptide; HBcAg 2 μg/well
# OD at 405 nm to indicated antigen: HBcAg 2 μg/well annotations
Field format: numeric only.

Examples with their reported OD at 405 nm to indicated antigen: HBcAg 2 μg/well follow.
QLNSLTSEDSAVYYCARGKG (Synthetically prepared amino acid sequence) [Peptide 32]; 0.528
LVTVSAAKTTPPSVYPLVPV (Synthetically prepared amino acid sequence) [Peptide 35]; 0.59
YDIDWVRQTPEQGLEWIGWI (Synthetically prepared amino acid sequence) [Peptide 4]; 0.551

Please report the recorded OD at 405 nm to indicated antigen: HBcAg 2 μg/well for ELTRLTSEDSAVYFCARGDY (Synthetically prepared amino acid sequence) [Peptide 9] .
0.574

I am curious: what OD at 405 nm to indicated antigen: HBcAg 2 μg/well value has been reported for CKASGYIFTSYDIDWVRQTP (Synthetically prepared amino acid sequence) [Peptide 3] ?
0.525

###

- system: HBcAg (Hepatitis B virus genotype D subtype ayw, UniProt P03146)
- details: peptide added prior to addition of mAb; uninhibited control mean OD 0.871
Entries annotated with measured OD at 490 nm, mAb 4-2 binding to HBcAg
Keep the answer to the number alone.

Solved entries (count: 2):
ASGYIFTS [SEQ. ID. No. 50]; 0.920
SCKASGYIFTS [SEQ. ID. No. 47]; 0.784

Reported OD at 490 nm, mAb 4-2 binding to HBcAg for PGASVKLSCKASGYIFTS [SEQ. ID. No. 40] : what is it?
0.182

Requested read-out: OD at 490 nm, mAb 4-2 binding to HBcAg. Entry: VKLSCKASGYIFTS [SEQ. ID. No. 44]
0.152

Param item = GYIFTS [SEQ. ID. No. 52] ; retrieve measured OD at 490 nm, mAb 4-2 binding to HBcAg.
0.903

# get_value(readout='OD at 490 nm, mAb 4-2 binding to HBcAg', item= SGYIFTS [SEQ. ID. No. 51] )
0.887

Field request: OD at 490 nm, mAb 4-2 binding to HBcAg | item: SVKLSCKASGYIFTS [SEQ. ID. No. 43]
0.175

Please look up its OD at 490 nm, mAb 4-2 binding to HBcAg: ASVKLSCKASGYIFTS [SEQ. ID. No. 42]
0.207

Field request: OD at 490 nm, mAb 4-2 binding to HBcAg | item: CKASGYIFTS [SEQ. ID. No. 48]
0.851

Quick one: OD at 490 nm, mAb 4-2 binding to HBcAg of KASGYIFTS [SEQ. ID. No. 49] ?
0.866

Which measured OD at 490 nm, mAb 4-2 binding to HBcAg value corresponds to KPGASVKLSCKASGYIFTS [SEQ. ID. No. 39] ?
0.202

Need OD at 490 nm, mAb 4-2 binding to HBcAg, item LSCKASGYIFTS [SEQ. ID. No. 46]
0.777

Name the reported OD at 490 nm, mAb 4-2 binding to HBcAg value associated with the substance KLSCKASGYIFTS [SEQ. ID. No. 45]
0.808

// lookup OD at 490 nm, mAb 4-2 binding to HBcAg for GASVKLSCKASGYIFTS [SEQ. ID. No. 41]
0.205
